Origin of measurements: PubChem BioAssay (NCATS)

Tested on: HACAT
Assay: qHTS assay to identify novel small-molecules to repurpose for Merkel cell carcinoma treatment (AID 1296009); note: nearly all actives have a fitted effect of over 60% in size
Settings: MCC and control cell lines, CellTiter-Glo viability, 72 h; at 44.8 µM (top of the series) unless noted
Results filed as inconclusive are left out. Activity calls are given as the source filed them. Calls come from the whole dose curve; as a rule, active = well fitted inhibition curve with a large enough effect; inconclusive = small, poorly fitted or top-dose-only effect; inactive = flat fitted curve, though single readings scatter.
property_name: outcome

Here is how some molecules turned out for outcome.
molecule	outcome
COc1ccc(C2OCC3C(c4cc(OC)c5c(c4)OCO5)OCC23)cc1OC (stereo not drawn)	inactive [at 17.4 µM]
O=C(Nc1ccc(N2CCC(C(=O)N3CCOCC3)CC2)cc1)c1cnc(Oc2ccccc2)nc1	inactive
CC(C)(O)C1CC=C(C(=O)OC[C@H]2O[C@@H](Oc3cc(C(=O)O)cc(O)c3O)[C@H](O)[C@@H](O)[C@@H]2O)CC1 (stereo partly drawn)	inactive [at 17.4 µM]
C[C@@H]1O[C@@H](O[C@H]2[C@H](O[C@H]3[C@H](O[C@H]4CC[C@@]5(C)C(CC[C@]6(C)C5CC=C5[C@@H]7CC(C)(C)C[C@@H](O)[C@]7(C)CC[C@]56C)[C@@]4(C)CO)O[C@H](C(=O)O)[C@@H](O)[C@@H]3O)O[C@H](C(=O)O)[C@H](O)[C@@H]2O)[C@H](O)[C@H](O)[C@H]1O (stereo partly drawn)	inactive [at 9.27 µM]
Cc1ncc([N+](=O)[O-])n1C[C@H](O)CN1CCOCC1	inactive
COc1cc(O)cc(C)c1C(=O)OC1C(CO)OC(n2ccc(=O)[nH]c2=O)C1OC(C)=O (stereo not drawn)	inactive [at 17.4 µM]
C=C1C(=O)O[C@@H]2CC(C)=C([C@@H](C)CCCOC(C)=O)[C@@H](O)[C@H]12	inactive
COc1cc(O)cc(O[C@@H]2O[C@H](CO)[C@@H](O[C@@H]3OC[C@](O)(CO)[C@H]3O)[C@H](O)[C@H]2O)c1OC	inactive [at 17.4 µM]

Prompt: Identify measured outcome associated with C[C@@H]1O[C@@H](O[C@@H]2[C@@H](O)[C@H](O[C@@H]3[C@@H](O)[C@@H](O)[C@H](O[C@H]4[C@H](OC(=O)[C@]56CCC(C)(C)C[C@H]5C5=CCC7[C@@]8(C)C[C@H](O)[C@H](O[C@@H]9O[C@H](C(=O)O)[C@@H](O)[C@H](O)[C@H]9O)[C@@](C)(CO)C8[C@H](O)C[C@@]7(C)[C@]5(C)C[C@H]6O)O[C@@H](CO)[C@@H]4O)O[C@H]3C)OC[C@H]2O)[C@H](O)[C@H](O)[C@H]1O (stereo partly drawn)
Response: inactive [at 9.27 µM]

Prompt: State, in one line, measured outcome of CC(C)=CCC[C@](C)(O[C@@H]1O[C@H](CO[C@@H]2OC[C@H](O)[C@H](O)[C@H]2O)[C@@H](O)[C@H](O)[C@H]1O)[C@H]1CC[C@]2(C)[C@@H]1[C@H](O)C[C@@H]1[C@@]3(C)CC[C@H](O[C@@H]4O[C@H](CO)[C@@H](O)[C@H](O)[C@H]4O[C@@H]4O[C@H](CO)[C@@H](O)[C@H](O)[C@H]4O)C(C)(C)[C@@H]3CC[C@]12C
Response: inactive [at 17.4 µM]

Prompt: Return value of outcome for input COC(=O)C(Cc1ccccc1)NC(=O)c1ccccc1 (stereo not drawn) , no commentary.
Response: inactive
